# TEST SYSTEM: Fuc(a1-2)Gal6S(b1-4)Glc
# PROCEDURE TEXT: glycan array binding signal (z-score within array); higher = stronger binding
# ASSAY CONTEXT: glycan notation: IUPAC condensed, linker removed
The full list was thinned out, with the strongest signals kept by preference.
VALUE KIND: glycan array binding signal (z-score)

BINDER	VALUE
FGF1 (Homo sapiens), P05230 (protein) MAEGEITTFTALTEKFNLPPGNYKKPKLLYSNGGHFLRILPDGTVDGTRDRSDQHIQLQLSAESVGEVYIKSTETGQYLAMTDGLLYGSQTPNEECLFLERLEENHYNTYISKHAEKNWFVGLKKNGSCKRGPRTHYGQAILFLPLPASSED	0.397
DC-Sign-R (Homo sapiens), Q9H2X3 (protein) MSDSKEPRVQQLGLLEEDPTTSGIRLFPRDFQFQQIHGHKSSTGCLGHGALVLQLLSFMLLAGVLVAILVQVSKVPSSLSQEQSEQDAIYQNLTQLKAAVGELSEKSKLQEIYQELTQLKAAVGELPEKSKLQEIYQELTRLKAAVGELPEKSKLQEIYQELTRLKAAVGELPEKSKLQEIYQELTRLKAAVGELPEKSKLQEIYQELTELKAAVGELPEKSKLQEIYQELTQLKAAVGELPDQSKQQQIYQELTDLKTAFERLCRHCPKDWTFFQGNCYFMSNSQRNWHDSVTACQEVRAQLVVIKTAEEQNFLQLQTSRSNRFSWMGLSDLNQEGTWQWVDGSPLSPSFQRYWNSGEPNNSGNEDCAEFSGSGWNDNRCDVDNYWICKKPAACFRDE	-0.528
